Test system: Vaccinia virus
Measurement Protocol: Antiviral activity against Vaccinia virus-induced cytopathogenicity in E6SM cells
Format: functional
Condition Context: Orthopoxvirus vaccinia
As shown below, each of these molecules has a reported MIC value.
Experimental Readout: MIC (µM)

{"columns": ["Smiles Repr", "Assay Value"],
 "data": [
  ["NC(=O)c1ncn([C@@H]2O[C@H](CO)[C@@H](O)[C@H]2O)n1", 100],
  ["O=C1O/C(=C\\Cn2cc(-c3ccccc3)c(=O)[nH]c2=O)C(OCc2ccccc2)=C1OCc1ccccc1", 95],
  ["Nc1nc2c(ncn2COC(CO)CO)c(=O)[nH]1", 60]
]}

###

Measured MIC, listed per entry.
System: Vaccinia virus
Measurement Protocol: Antiviral activity against Vaccinia virus-induced cytopathogenicity in E6SM cells
Assay type: functional
Condition Context: Orthopoxvirus vaccinia
Experimental Readout: MIC

{"columns": ["Molecule", "Assay Value"],
 "data": [
  ["O=C1O/C(=C(\\Br)Cn2c(Br)c(/C=C/Br)c(=O)[nH]c2=O)C(OCc2ccccc2)=C1OCc1ccccc1", "> 116 µM"],
  ["O=C1O/C(=C\\Cn2cc(-c3ccc(Br)o3)c(=O)[nH]c2=O)C(OCc2ccccc2)=C1OCc1ccccc1", "> 70 µM"],
  ["O=C1O/C(=C\\Cn2cc(-c3cccs3)c(=O)[nH]c2=O)C(OCc2ccccc2)=C1OCc1ccccc1", "> 156 µM"],
  ["C=Cc1cn(C/C=C2\\OC(=O)C(O)=C2O)c(=O)[nH]c1=O", "> 144 µM"],
  ["O=C1O/C(=C\\Cn2cc(-c3ccc(Cl)o3)c(=O)[nH]c2=O)C(OCc2ccccc2)=C1OCc1ccccc1", "> 150 µM"],
  ["Nc1nc2c(ncn2COCCO)c(=O)[nH]1 [ACYCLOVIR]", "300 µM"],
  ["O=c1[nH]c(=O)n([C@H]2C[C@H](O)[C@@H](CO)O2)cc1/C=C/Br [BRIVUDINE]", "2.4 µM"],
  ["O=C1O/C(=C\\Cn2cc(C#Cc3ccccc3)c(=O)[nH]c2=O)C(OCc2ccccc2)=C1OCc1ccccc1", "> 40 µM"],
  ["CC#Cc1cn(C/C=C2\\OC(=O)C(OCc3ccccc3)=C2OCc2ccccc2)c(=O)[nH]c1=O", "> 0.4 µM"]
]}

###

Tested on: Vaccinia virus
Measurement Protocol: Antiviral activity against Vaccinia virus-induced cytopathogenicity in E6SM cells
Format: functional
Condition Context: Orthopoxvirus vaccinia
Experimental Readout: MIC

{"columns": ["Smiles Repr", "Assay Value"],
 "data": [
  ["C=CCc1cn(C/C=C2\\OC(=O)C(OCc3ccccc3)=C2OCc2ccccc2)c(=O)[nH]c1=O", "> 8 µM"],
  ["O=C1O/C(=C\\Cn2cc(-c3ccco3)c(=O)[nH]c2=O)C(OCc2ccccc2)=C1OCc1ccccc1", "> 6.4 µM"],
  ["O=C1O/C(=C\\Cn2cc(/C=C/Br)c(=O)[nH]c2=O)C(OCc2ccccc2)=C1OCc1ccccc1", "> 150 µM"],
  ["C=C=Cc1cn(C/C=C2\\OC(=O)C(OCc3ccccc3)=C2OCc2ccccc2)c(=O)[nH]c1=O", "> 8 µM"]
]}
